# Experiment notes: Trough plasma concentrations of troglitazone
# Assay type: in vivo, patients
# Run parameters: human, plasma, po; Week 12; 400 mg QD, alone or + glyburide; read-out: Mean (% RSD) Trough Plasma Concentration of Troglitazone
Quantity name: concentration at 2016 h

The recorded concentration at 2016 h for Cc1c(C)c2c(c(C)c1O)CCC(C)(COc1ccc(CC3SC(=O)NC3=O)cc1)O2 (stereo not shown) is 238 ng/mL

----------
# Experiment notes: Trough plasma concentrations of troglitazone
# Assay type: in vivo, patients
# Run parameters: human, plasma, po; Week 12; 200 mg QD, alone or + glyburide; read-out: Mean (% RSD) Trough Plasma Concentration of Troglitazone
Quantity name: concentration at 2016 h (ng/mL)
Field: numeric (ng/mL). Do not append units.

The recorded concentration at 2016 h for Cc1c(C)c2c(c(C)c1O)CCC(C)(COc1ccc(CC3SC(=O)NC3=O)cc1)O2 (stereo not shown) is 145
